Assayed system: Bifunctional epoxide hydrolase 2 (Homo sapiens)
Sequence (P34913 whole entry): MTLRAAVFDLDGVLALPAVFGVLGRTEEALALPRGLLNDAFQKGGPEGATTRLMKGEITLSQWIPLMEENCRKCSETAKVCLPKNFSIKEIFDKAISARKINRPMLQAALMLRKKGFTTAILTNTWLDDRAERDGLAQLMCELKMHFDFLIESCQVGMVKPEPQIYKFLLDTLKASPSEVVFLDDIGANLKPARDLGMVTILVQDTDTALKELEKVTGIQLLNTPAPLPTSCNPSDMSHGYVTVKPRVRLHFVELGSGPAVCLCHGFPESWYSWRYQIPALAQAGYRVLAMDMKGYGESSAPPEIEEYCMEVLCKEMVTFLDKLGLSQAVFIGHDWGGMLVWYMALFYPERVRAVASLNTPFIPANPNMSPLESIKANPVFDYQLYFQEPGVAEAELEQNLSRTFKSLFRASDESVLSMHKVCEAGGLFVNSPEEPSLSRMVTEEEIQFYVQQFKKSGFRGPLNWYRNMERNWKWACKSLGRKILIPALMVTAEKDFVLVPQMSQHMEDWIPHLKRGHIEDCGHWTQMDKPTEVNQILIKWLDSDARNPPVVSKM
Protocol description: Inhibition of full length human soluble epoxide hydrolase (1 to 555 residues) expressed in Escherichia coli BL21(DE3) using non-fluorescent PHOME as substrate preincubated for 30 mins followed by substrate addition and measured for 30 mins by fluorescence based assay
Experimental readout: IC50 (nM)

# count of solved cases: 3
Smiles string	IC50, nM
O=C(Cc1ccc(Oc2ccccc2)cc1)NCCc1ccc(C(F)(F)F)cc1	500
Fc1ccc(CCNCc2ccc(Oc3ccccc3)cc2)cc1	3600
Cc1ccc(CCNC(=O)Cc2ccc(Oc3ccccc3)cc2)cc1	1100

a = O=C(Cc1ccc(Oc2nc3ccccc3s2)cc1F)NCc1c[nH]c2cc(F)ccc12
b = O=C(Cc1ccc(Oc2ccccc2)cc1)NCCc1ccc(F)cc1
For a and b , which recorded IC50 is lower? Mark your answer with the label of the selected entry.
b
(b: 900 nM, a: 5600 nM)

The reported measurements were obtained from ChEMBL document CHEMBL4342480.
